Every entry's value here was drawn from patent US11739098B2.

Below, each entry is listed with its recorded pIC50.
Target: human TLR8 (Homo sapiens, UniProt Q9NR97)
Sequence (Q9NR97 27-1041): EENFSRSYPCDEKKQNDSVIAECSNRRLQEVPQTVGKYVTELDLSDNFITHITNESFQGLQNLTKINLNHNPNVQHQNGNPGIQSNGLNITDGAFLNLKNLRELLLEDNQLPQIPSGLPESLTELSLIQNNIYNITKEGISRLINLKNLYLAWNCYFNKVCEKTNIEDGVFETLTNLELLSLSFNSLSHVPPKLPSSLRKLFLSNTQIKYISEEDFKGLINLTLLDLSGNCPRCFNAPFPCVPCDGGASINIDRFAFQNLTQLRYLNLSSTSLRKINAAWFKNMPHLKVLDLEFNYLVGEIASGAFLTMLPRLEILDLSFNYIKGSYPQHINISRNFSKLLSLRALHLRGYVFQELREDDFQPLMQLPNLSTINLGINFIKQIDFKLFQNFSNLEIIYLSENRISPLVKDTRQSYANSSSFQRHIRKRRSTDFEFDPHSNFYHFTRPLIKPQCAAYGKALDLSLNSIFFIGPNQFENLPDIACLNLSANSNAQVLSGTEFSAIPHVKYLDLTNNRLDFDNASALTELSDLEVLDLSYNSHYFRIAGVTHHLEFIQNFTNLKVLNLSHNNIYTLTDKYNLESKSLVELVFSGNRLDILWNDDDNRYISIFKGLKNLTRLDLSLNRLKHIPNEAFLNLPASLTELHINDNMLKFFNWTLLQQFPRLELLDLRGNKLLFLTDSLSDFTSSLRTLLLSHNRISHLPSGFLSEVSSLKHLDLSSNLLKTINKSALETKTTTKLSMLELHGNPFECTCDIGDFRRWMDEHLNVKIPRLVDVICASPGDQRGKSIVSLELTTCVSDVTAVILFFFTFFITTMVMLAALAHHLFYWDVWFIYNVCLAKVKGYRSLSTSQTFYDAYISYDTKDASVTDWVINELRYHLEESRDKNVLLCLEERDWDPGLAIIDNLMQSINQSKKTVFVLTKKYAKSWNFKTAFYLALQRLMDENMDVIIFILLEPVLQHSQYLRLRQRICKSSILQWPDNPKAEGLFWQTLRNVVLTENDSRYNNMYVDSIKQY
Test: TLR8 inhibition reporter assay (HEK-Blue cells, SEAP reporter, R848 stimulation)
Conditions: HEK-Blue cells overexpressing human TLR8, SEAP reporter, R848 15.9 μM
pIC50: −log10 of the molar value.

// solved cases for pIC50 follow
COMPOUND: CCc1c(-c2ccnc3[nH]ncc23)[nH]c2ccc(C3CCN(Cc4c(C)noc4C)CC3)cc12
pIC50: > 7.00
--
COMPOUND: Cc1ncc(CN2CCC(c3ccc4[nH]c(-c5cn(C)c6ncccc56)c(C(C)C)c4c3)CC2)cn1
pIC50: > 7.00
--
COMPOUND: Cc1c(-c2ccnc3[nH]ncc23)[nH]c2ccc(C3CCN(C4CCN(C(C)C)CC4)CC3)cc12
pIC50: > 7.00
--
COMPOUND: CC(C)c1c(-c2ccc3nccn3c2)[nH]c2ccc(C3CCN(C(=O)CN(C)C)CC3)cc12
pIC50: 6.00 to 7.00
--
COMPOUND: FC(F)Cc1c(-c2ccc3nccn3c2)[nH]c2ccc(C3CCN(Cc4c[nH]cn4)CC3)cc12
pIC50: 6.00 to 7.00

Can you share its pIC50? I mean this compound: Cc1cc(-c2[nH]c3ccc(C4CCN(C(=O)CCN5CCS(=O)(=O)CC5)CC4)cc3c2C(C)C)cn2nnnc12
6.00 to 7.00

Can you share its pIC50? I mean this compound: Cc1cn2cc(-c3[nH]c4ccc(C5CCN(C(=O)CN(C)C)CC5)cc4c3CC(F)F)ccc2n1
< 5.51

Can you share its pIC50? I mean this compound: Cc1nc[nH]c1CN1CCC(c2ccc3[nH]c(-c4ccnc5[nH]nc(C)c45)c(C(C)C)c3c2)CC1
> 7.00

Can you share its pIC50? I mean this compound: CCc1c(-c2cc3cnn(C)c3cn2)[nH]c2ccc(C3CCNCC3)cc12
6.00 to 7.00

Can you share its pIC50? I mean this compound: CC(C)c1c(-c2ccnc3[nH]ncc23)[nH]c2ccc(C3CCNCC3F)cc12 (stereo not shown) [Example 171]
> 7.00

Can you share its pIC50? I mean this compound: CCc1c(-c2ccnc3[nH]ncc23)[nH]c2ccc(C3CCN(Cc4csc(C(C)C)n4)CC3)cc12
6.00 to 7.00

Can you share its pIC50? I mean this compound: CC(C)c1c(-c2ccnc3[nH]ncc23)[nH]c2ccc(C3CCN(Cc4cn(C)cn4)CC3)cc12
> 7.00

Can you share its pIC50? I mean this compound: CNCCN1CCC(c2ccc3[nH]c(-c4ccc5nccn5c4)c(C(C)C)c3c2)CC1
> 7.00

Can you share its pIC50? I mean this compound: CCc1c(-c2ccnc3[nH]ccc23)[nH]c2ccc(C3CCN(C4CCN(CC(C)C)CC4)CC3)cc12
> 7.00

Can you share its pIC50? I mean this compound: COCCN1CCC(c2ccc3[nH]c(-c4ccc(C#N)c5ncccc45)c(C(C)C)c3c2)CC1
> 7.00

Can you share its pIC50? I mean this compound: CC(C)c1c(-c2ccc3ncnn3n2)[nH]c2ccc(C3CCN(CC(C)(C)O)CC3)cc12
> 7.00
